Sourced from patent US8569493B2

Target: Recombinant human GR (Homo sapiens, UniProt P04150)
Construct: purchased Invitrogen P2816
Sequence (P04150 1-777): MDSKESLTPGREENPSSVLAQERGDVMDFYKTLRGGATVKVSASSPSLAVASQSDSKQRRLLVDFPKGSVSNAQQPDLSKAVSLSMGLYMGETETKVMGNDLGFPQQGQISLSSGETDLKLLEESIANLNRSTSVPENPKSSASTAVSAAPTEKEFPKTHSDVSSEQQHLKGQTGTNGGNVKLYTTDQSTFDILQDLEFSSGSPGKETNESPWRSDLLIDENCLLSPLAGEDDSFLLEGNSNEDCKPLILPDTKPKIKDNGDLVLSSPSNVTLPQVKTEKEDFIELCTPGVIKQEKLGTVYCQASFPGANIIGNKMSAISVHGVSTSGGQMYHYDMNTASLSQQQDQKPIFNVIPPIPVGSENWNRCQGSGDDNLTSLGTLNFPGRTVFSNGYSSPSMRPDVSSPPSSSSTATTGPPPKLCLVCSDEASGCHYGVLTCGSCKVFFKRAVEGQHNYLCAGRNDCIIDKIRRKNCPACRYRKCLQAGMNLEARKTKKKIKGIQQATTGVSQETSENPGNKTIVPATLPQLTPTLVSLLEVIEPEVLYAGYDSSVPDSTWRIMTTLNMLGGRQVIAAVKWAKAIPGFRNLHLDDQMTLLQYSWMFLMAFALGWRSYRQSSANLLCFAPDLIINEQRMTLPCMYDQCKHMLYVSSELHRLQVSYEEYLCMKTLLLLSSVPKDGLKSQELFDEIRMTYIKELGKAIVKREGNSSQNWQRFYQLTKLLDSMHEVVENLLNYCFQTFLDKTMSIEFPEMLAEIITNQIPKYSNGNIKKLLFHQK
Test: GR competitor assay by fluorescence polarization (binding activity to glucocorticoid receptor)
Conditions: 20 μM test compound solution, 10 μL per well plus 5 μL 4×GS1 and 5 μL 4×GR; 2 to 4 hours at room temperature; ratio of 100% or more is indicated by 100%
Answer each item with its documented inhibition at 10 µM.
# output: numeric value plus its unit

Output inhibition at 10 µM of CCCNCCCS(=O)(=O)Oc1ccc(-c2ccc3c(c2COc2cc(F)ccc2C)N(C)C(=O)C(C)(C)N3)c(OC)c1 [Compound 3-2]
100%

Output inhibition at 10 µM of COc1ccc([N+](=O)[O-])cc1OCc1c(-c2ccc(OS(C)(=O)=O)cc2OC)ccc2c1N(C)C(=O)C(C)(C)N2 [Compound 1-38]
100%

Output inhibition at 10 µM of CNCCN(C)CCCS(=O)(=O)Oc1ccc(-c2ccc3c(c2COc2cc(F)ccc2C)N(C)C(=O)C(C)(C)N3)c(OC)c1 [Compound 3-6]
99%

Output inhibition at 10 µM of COc1cc(OS(=O)(=O)C(C)C)ccc1-c1ccc2c(c1COc1cc(F)ccc1C)N(C)C(=O)C(C)(C)N2 [Compound 1-14]
100%

Output inhibition at 10 µM of CCCS(=O)(=O)Oc1ccc(-c2ccc3c(c2COc2cc([N+](=O)[O-])ccc2OC)N(C)C(=O)C(C)(C)N3)c(OC)c1 [Compound 1-44]
93%

Output inhibition at 10 µM of COc1ccccc1NCc1c(-c2ccc(OS(C)(=O)=O)cc2OC)ccc2c1N(C)C(=O)C(C)(C)N2 [Compound 2-1]
95%

Output inhibition at 10 µM of COc1cc(OS(=O)(=O)c2ccccc2)ccc1-c1ccc2c(c1COc1cc(F)ccc1C)N(C)C(=O)C(C)(C)N2 [Compound 1-2]
85%

Output inhibition at 10 µM of COc1cc(OS(=O)(=O)C(C)C)ccc1-c1ccc2c(c1COC(=O)c1ccc(C)s1)N(C)C(=O)C(C)(C)N2 [Compound 1-36]
99%

Output inhibition at 10 µM of COc1cc(OS(C)(=O)=O)ccc1-c1ccc2c(c1COc1cc(F)ccc1C)N(C)C(=O)C(C)(C)N2 [Compound 1-1]
91%

Output inhibition at 10 µM of COc1cc(OS(=O)(=O)Cc2cccc(C)c2)ccc1-c1ccc2c(c1COc1cc(F)ccc1C)N(C)C(=O)C(C)(C)N2 [Compound 1-31]
90%

Output inhibition at 10 µM of CCCCS(=O)(=O)Oc1ccc(-c2ccc3c(c2COc2cc(F)ccc2C)N(C)C(=O)C(C)(C)N3)c(OC)c1 [Compound 1-12]
100%

Output inhibition at 10 µM of CCCS(=O)(=O)Oc1ccc(-c2ccc3c(c2CNc2cc(F)ccc2C)N(C)C(=O)C(C)(C)N3)c(OC)c1 [Compound 1-58]
100%

Output inhibition at 10 µM of COc1ccc([N+](=O)[O-])cc1OCc1c(-c2ccc(OS(=O)(=O)CC(C)C)cc2OC)ccc2c1N(C)C(=O)C(C)(C)N2 [Compound 1-40]
100%

Output inhibition at 10 µM of COc1ccccc1NCc1c(-c2ccc(OS(=O)(=O)C3CCCC3)cc2OC)ccc2c1N(C)C(=O)C(C)(C)N2 [Compound 2-7]
99%
